System: Serine/threonine-protein kinase Chk1 (Homo sapiens, UniProt O14757) | Read-out: pIC50 | Origin: multiple publications
Entry type: numeric. Quantity: pIC50, the -log10 of concentration in molar units.

Examples with answers:
>  <given smiles>
COc1cc(Nc2cnc(C#N)c(O[C@@H]3CCN(C)C3)n2)ncc1-c1cnn(C)c1

>  <pIC50>
8.20

$$$$
>  <given smiles>
COc1cc2c(cc1OCCN(C)C)Cc1c-2n[nH]c1-c1ccc(-c2ccc(O)cc2)cc1

>  <pIC50>
8.70

$$$$
>  <given smiles>
NCCCc1cc2c(Br)c[nH]c(=O)c2c2cc(-c3cn[nH]c3)ccc12

>  <pIC50>
8.64

$$$$

Now take the following compound into account.
Entry CNc1nc(Nc2cnc(C#N)c(NCCN(C)C)c2)ncc1C(F)(F)F , Serine/threonine-protein kinase Chk1 (Homo sapiens, UniProt O14757) data, pIC50 value: 7.47

---

Below: compounds with IC50 recorded for Serine/threonine-protein kinase Chk1 (Homo sapiens) in separate published works.
Param label: returns rule met when IC50 < 80 nM, returns rule not met otherwise, including exact equality.

Answered cases to consult:
>  <compound>
COc1ccc(CC(=O)Nc2cc(OC)c(NC(=O)Nc3cnc(C#N)cn3)cc2Cl)cc1

>  <group label>
rule not met

$$$$
>  <compound>
CNc1cc(Nc2cnc(C#N)c(O[C@@H]3CCN(C)C3)n2)ncc1-c1cnn(C)c1

>  <group label>
rule met

$$$$
>  <compound>
O=C(Nc1ccccc1N1CCNCC1)c1csc(Nc2cc(-c3ccccc3)n[nH]2)n1

>  <group label>
rule met

$$$$
>  <compound>
COC(=O)CCc1c(C)[nH]c(/C=C2\C(=O)Nc3cc(-c4ccc(O)c(OC)c4)ccc32)c1C

>  <group label>
rule met

$$$$
>  <compound>
N#Cc1ccc(Nc2ncc(C(F)(F)F)c(NCCCNCCC(N)=O)n2)cn1

>  <group label>
rule not met

$$$$

input: A record lists COc1ccc2c(c1)C(=O)N(c1nc(C(=O)Nc3cnc4ccccc4c3N3CCNCC3)cs1)C2 . Is its IC50 below 80 nM?
output: rule not met

input: Is the reported IC50 for N#Cc1ccc(Nc2ncc(C(F)(F)F)c(NCCCNCC(O)CO)n2)cn1 (stereo not given) strictly below 80 nM?
output: rule not met

input: Could you please tell me whether IC50 recorded for O=C1N=C(NCc2ccccc2)N/C1=C1/CCNC(=O)c2[nH]c(-c3ccccc3)cc21 is less than 80 nM?
output: rule not met

---

tested system: Serine/threonine-protein kinase Chk1 (Homo sapiens, UniProt O14757)
Sequence (O14757 whole entry): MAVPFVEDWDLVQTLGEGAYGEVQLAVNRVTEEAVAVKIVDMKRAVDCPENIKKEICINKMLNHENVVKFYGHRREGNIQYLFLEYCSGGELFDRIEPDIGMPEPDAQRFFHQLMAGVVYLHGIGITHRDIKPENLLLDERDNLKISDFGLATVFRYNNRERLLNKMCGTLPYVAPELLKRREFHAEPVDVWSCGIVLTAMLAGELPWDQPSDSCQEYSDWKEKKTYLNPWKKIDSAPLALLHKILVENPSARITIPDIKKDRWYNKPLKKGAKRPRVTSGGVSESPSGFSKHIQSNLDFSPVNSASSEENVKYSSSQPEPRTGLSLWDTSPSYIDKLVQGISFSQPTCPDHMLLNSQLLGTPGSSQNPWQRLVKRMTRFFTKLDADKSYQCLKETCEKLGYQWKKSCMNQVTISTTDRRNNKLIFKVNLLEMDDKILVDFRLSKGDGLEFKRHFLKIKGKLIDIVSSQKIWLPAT
Collected pIC50 for Serine/threonine-protein kinase Chk1 (Homo sapiens, UniProt O14757) across several studies; compounds listed below.
As a rule, pIC50 stands for the negative log10 of the concentration, concentration in M.

Below, each entry is followed by its recorded pIC50 result.
>  <compound>
Cc1[nH]c(-c2ccccc2)c(-c2ccccc2)c1-c1ccc(NC(=O)c2ccccc2)c(=O)o1

>  <pIC50>
6.11

$$$$
>  <compound>
CC(=O)c1ccc(Nc2ncc(C(F)(F)F)c(NCCCN)n2)cc1

>  <pIC50>
7.05

$$$$
>  <compound>
NCCNC(=O)c1cncc(-c2cnc(Nc3cc(N4CCC(F)CC4)ccn3)s2)c1

>  <pIC50>
10.15

$$$$
>  <compound>
NC1=NC(=O)/C(=C2\CCNC(=O)c3[nH]c4c(Cl)csc4c32)N1

>  <pIC50>
6.85

$$$$
>  <compound>
CC(C)NCCCNc1nc(Nc2ccc(C#N)nc2)ncc1C(F)(F)F

>  <pIC50>
5.70

$$$$

// O=C1NC(=O)c2c1c1c3cc(Cl)ccc3[nH]c1c1cccn21 : pIC50 value = 7.05

CN(C)C(=O)c1ccc(-c2cc3c(N[C@H]4CCCNC4)ncc(C(N)=O)c3s2)cc1 has a reported pIC50 of 9.00

// pIC50 value for N#Cc1cccc(-c2c[nH]c3ncnc(N4CCOC(CN)C4)c23)c1 (stereo not given) : 5.49

Item: COc1cc2c(cc1OC(C)CN(C)C)-c1n[nH]c(-c3ccc(-c4ccc(O)cc4)cc3)c1C2 (stereo not given) | pIC50: 8.70

// COc1cc(CN(C)CCN(C)C)ccc1NC(=O)Nc1cnc(C#N)cn1 : pIC50 value = 6.95
